Listed here are binders together with their documented Ratio/Fc-H.
biological target: T1, FcRn-p3 fusion protein (human, UniProt P55899 24-297; P61769 21-119); assay: phage ELISA pH6
T1 construct: baculovirus expressed; coated on ELISA wells; not shown: amino terminal part of bacteriophage p3 protein and CVDE protein
T1 sequence (P55899 24-297, chain 1 of 2): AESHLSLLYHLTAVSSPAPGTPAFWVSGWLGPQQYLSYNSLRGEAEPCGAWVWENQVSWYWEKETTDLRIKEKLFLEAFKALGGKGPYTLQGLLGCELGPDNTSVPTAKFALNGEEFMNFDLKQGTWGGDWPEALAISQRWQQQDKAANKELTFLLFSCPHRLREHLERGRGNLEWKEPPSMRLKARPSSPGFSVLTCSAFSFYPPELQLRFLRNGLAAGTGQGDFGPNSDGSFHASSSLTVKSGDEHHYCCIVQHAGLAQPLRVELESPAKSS
T1 sequence (P61769 21-119, chain 2 of 2): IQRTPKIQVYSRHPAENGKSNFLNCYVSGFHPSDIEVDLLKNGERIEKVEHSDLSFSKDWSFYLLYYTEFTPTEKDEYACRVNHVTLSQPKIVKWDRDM
observable: Ratio/Fc-H (fold)

{"binder": "T4A_41 (other, EU numbering) CPPCPAPELLGGPSVRLFPPKPKDTLMISRTPEVTCVVEDVSHEDPEVKFNWYVDGVEVHNAKTKPREEQYNSTYRVVSVLPVLHQDWLNGKEYKCKVSNKALPAPIEKTISKAKGQPREPQVYTLPPSRDELTKNQVSLTCLVKGFYPSDIVVEWESNGQPENNYKTTPPVLDSDGSFFLYSKLTVDKSRWQQGNVFSCSVMHEALHNHYTQKSLSLSPGK", "unitAbbreviation": "fold", "resultValue": 2.5}
{"binder": "T3A_47 (other, EU numbering) CPPCPAPELLGGPSVFLFPPKPKDTLMISRTPEVTCVVVDVSHEDPEVKFNWYVDGVEVHNAKTKPREEQYNSTYRVVSVLPVLHQDWLNGKEYKCKVSNKALPAPIEKTISKAKGQPREPQVYTLPPSRDELTKNQVSLTCLVKGFYPSDITVEWESNGQPENNYKTTPPMLDSDGSFFLYSKLTVDKSRWQQGNVFSCSVMHEALHNHYTQKSLSLSPGK", "unitAbbreviation": "fold", "resultValue": 2}
